// values below are IC50; system is Cathepsin K (Oryctolagus cuniculus)
Just the number in nM, nothing appended.

Entry under test: `CC(C)C[C@H](Nc1cscc1Br)C(=O)NCC#N` . Its IC50 was 43

Field IC50 (entry CC(C)CC(Sc1ccc(Br)cc1)C(=O)NCC#N (configuration not stated) ) reads 675

IC50 in this record for CC(C)CC(Cc1cccc(Br)c1)C(=O)NCC#N (configuration not stated) : 3390

Noted for CC(C)CC(Nc1ccccc1Br)C(=O)NCC#N (configuration not stated) : its IC50 reads 54

response.value for `CC(C)C[C@H](Nc1ccccc1-c1ccc(N2CCNCC2)cc1)C(=O)NCC#N` (field: IC50) = 3

Documented IC50 of CC(C)CC(Sc1ccccc1Br)C(=O)NCC#N (configuration not stated) : 433

For this compound ( `CC(C)C[C@@H](C(=O)NCC#N)c1cccc(-c2ccc(N3CCNCC3)cc2)c1` ), measured IC50 is 11

----------
I'd appreciate it if you could supply IC50 values for the items below.
Hi! Could you send only the number? It should be in nM, unit omitted.

`CC(C)C[C@H](Nc1cccc(-c2ccc(N3CCNCC3)cc2)c1)C(=O)NCC#N` on Procathepsin L (Homo sapiens, UniProt P07711) gives IC50 = 108

Entry `CC(C)C[C@H](Nc1cscc1Br)C(=O)NCC#N` , tested on Procathepsin L (Homo sapiens, UniProt P07711), has a reported IC50 of 458

Bench note, Procathepsin L (Homo sapiens, UniProt P07711): entry `CC(C)C[C@H](Nc1cscc1-c1ccc(N2CCNCC2)cc1)C(=O)NCC#N` , its IC50 = 352
